system: rat histamine H3 receptor (Rattus norvegicus, UniProt Q9QYN8)
Construct: encoding the entire 445-amino-acid rat histamine H3 receptor; expressed in transfected cells; membrane preparation
Sequence (Q9QYN8 whole entry): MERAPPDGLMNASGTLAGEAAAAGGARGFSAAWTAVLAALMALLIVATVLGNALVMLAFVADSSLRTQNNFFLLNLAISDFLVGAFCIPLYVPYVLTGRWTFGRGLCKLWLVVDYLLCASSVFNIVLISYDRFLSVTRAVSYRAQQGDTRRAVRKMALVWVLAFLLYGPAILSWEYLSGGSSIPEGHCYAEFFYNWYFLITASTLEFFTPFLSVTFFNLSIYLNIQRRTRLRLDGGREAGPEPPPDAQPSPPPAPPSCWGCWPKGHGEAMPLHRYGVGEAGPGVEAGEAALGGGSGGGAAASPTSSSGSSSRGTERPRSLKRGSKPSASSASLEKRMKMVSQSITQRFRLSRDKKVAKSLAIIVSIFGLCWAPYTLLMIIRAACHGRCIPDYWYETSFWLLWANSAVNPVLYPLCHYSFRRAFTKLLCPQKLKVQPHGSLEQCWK
experiment: Rat H3 radioligand binding ([3H]-N-alpha-methylhistamine, SPA)
conditions: Rat H3 binding, Table B, Examples 136-362; read-out: rat H3 binding Ki
Reported Ki values for a set of compounds

Before answering, review these 3 worked examples.
O=C(c1ccc(Nc2ccc3c(c2)COC2(CCN(C4CCC4)CC2)O3)cc1)N1CCOCC1 : < 200 nM
CNC(=O)c1ccc(Nc2ccc3c(c2)COC2(CCN(C4CCC4)CC2)O3)cc1 : < 200 nM
COCCNC(=O)c1ccc(-c2ccc3c(c2)CCC2(CCN(C4CCC4)CC2)O3)cc1F : < 200 nM

Okay, next one:
Endpoint output: Ki of CCN(CC)C(=O)N1CCN(c2ccc3c(c2)COC2(CCN(C4CCC4)CC2)O3)CC1 . Value? < 200 nM
